# STUDY TARGET: UniProt:O60674
# Sequence (O60674 whole entry): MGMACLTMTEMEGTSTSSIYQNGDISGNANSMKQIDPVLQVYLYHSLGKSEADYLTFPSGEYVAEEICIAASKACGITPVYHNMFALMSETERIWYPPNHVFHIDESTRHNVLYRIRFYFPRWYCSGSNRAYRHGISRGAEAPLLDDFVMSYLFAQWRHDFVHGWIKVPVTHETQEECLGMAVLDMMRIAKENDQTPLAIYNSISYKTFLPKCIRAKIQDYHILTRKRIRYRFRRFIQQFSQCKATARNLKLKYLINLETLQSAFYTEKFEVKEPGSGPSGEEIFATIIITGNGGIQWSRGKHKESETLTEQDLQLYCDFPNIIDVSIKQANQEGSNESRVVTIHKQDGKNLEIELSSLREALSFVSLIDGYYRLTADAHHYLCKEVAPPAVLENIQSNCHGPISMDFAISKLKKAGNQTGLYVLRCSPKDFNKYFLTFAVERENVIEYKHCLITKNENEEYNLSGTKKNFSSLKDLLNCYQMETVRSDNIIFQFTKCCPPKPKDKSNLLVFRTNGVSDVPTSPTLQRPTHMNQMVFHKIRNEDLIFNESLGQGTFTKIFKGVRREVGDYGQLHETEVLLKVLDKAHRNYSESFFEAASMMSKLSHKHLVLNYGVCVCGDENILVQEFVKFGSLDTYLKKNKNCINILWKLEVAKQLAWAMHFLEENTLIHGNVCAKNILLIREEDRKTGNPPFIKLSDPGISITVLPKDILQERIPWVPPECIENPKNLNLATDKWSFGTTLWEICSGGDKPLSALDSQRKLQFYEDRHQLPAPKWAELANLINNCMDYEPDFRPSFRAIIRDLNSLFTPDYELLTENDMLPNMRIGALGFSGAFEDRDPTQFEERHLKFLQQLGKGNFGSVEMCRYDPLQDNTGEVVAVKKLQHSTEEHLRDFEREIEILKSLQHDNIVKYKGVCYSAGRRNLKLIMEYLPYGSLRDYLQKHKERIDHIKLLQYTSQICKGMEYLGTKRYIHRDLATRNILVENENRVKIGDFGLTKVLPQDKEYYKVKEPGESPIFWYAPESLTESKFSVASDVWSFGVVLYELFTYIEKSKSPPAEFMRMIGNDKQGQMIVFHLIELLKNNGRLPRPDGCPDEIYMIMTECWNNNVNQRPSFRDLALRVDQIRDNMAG
# PROTOCOL DESCRIPTION: JAK2 inhibition assay (as Example 3 with JAK-2 enzyme)
# Type: biochemical
# RECORDED CONDITIONS: enzyme inhibition, Table 5

# MOLECULE, Ki
records = [
    ("CC(C)(Nc1nc(-c2ccnc3[nH]ccc23)ncc1F)C(=O)NCC(F)(F)F", "500 to 5000 nM"),
    ("N#CCC(=O)N1CCCN(c2cccc(-c3ccnc4[nH]ccc34)n2)CC1", "< 500 nM"),
    ("Cc1n[nH]c(C)c1-c1ccnc2[nH]ccc12", "> 5000 nM"),
    ("N#CC1(c2cccc(-c3ccnc4[nH]ccc34)n2)CCCC1", "< 500 nM"),
    ("CC(C)(Nc1nc(-c2ccnc3[nH]ccc23)nc2ccccc12)C(=O)NCC(F)(F)F", "> 5000 nM"),
    ("CN1CCN(C(=O)c2cccc(-c3ccnc4[nH]ccc34)c2)CC1", "> 5000 nM"),
    ("CN(CCC(O)c1ccccc1)c1cccc(-c2ccnc3[nH]ccc23)n1 (stereo not drawn)", "500 to 5000 nM"),
    ("CC1CCCC=C1c1c(Cl)cnc2[nH]ccc12 (stereo not drawn)", "500 to 5000 nM"),
    ("CC(C)(C#N)c1cccc(-c2ccnc3[nH]ccc23)n1", "< 500 nM"),
]

Source of measurements: patent US8921376B2
